Target or system: cIAP1-BIR3 Protein (Homo sapiens (Human), UniProt Q13490)
Sequence (Q13490 253-363): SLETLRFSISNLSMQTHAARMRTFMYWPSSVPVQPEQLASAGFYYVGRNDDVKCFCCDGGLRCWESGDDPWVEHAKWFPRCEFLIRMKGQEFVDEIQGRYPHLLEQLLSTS
Assay overview: Fluorescence polarization affinity of compounds to cIAP1-BIR3
Condition: cIAP1-BIR3 20 nM; 5 nM ARPFAQ-K(5-FAM)-NH2 probe; FP; pH 7.5; read-out: affinity to target protein in vitro, cIAP1-BIR3 Protein (IC50)
Observable: IC50

Solved cases (5 shown):
>  <Smiles data>
CN[C@@H](C)C(=O)N[C@H](C(=O)N1CCC[C@H]1Cc1c(-c2nc3cc(F)ccc3n2C[C@@H]2CCCN2C(=O)[C@@H](NC(=O)[C@H](C)NC)C(C)C)[nH]c2cc(F)ccc12)C(C)C

>  <Target or system>
cIAP1-BIR3 Protein (Homo sapiens (Human), UniProt Q13490)

>  <Observed result>
< 10 nM

$$$$
>  <Smiles data>
CC[C@H](NC(=O)[C@H](C)NC)C(=O)N1C[C@@H](F)C[C@H]1Cc1c(-c2nc3cc(F)ccc3n2C[C@@H]2C[C@H](F)CN2C(=O)[C@H](CC)NC(=O)[C@H](C)NC)[nH]c2cc(F)ccc12

>  <Target or system>
cIAP1-BIR3 Protein (Homo sapiens (Human), UniProt Q13490)

>  <Observed result>
10 to 100 nM

$$$$
>  <Smiles data>
CC[C@H](NC(=O)[C@H](C)NC)C(=O)N1CC(F)(F)C[C@H]1Cc1c(-c2nc3cc(F)ccc3n2C[C@@H]2CC(F)(F)CN2C(=O)[C@H](CC)NC(=O)[C@H](C)NC)[nH]c2cc(F)ccc12

>  <Target or system>
cIAP1-BIR3 Protein (Homo sapiens (Human), UniProt Q13490)

>  <Observed result>
10 to 100 nM

$$$$
>  <Smiles data>
CN[C@@H](C)C(=O)N[C@H](C(=O)N1C[C@@H](F)C[C@H]1Cn1c(-c2[nH]c3cc(F)ccc3c2C[C@@H]2C[C@H](F)CN2C(=O)[C@@H](NC(=O)[C@H](C)NC)C2CC2)nc2cc(F)ccc21)C(C)C

>  <Target or system>
cIAP1-BIR3 Protein (Homo sapiens (Human), UniProt Q13490)

>  <Observed result>
< 10 nM

$$$$
>  <Smiles data>
CN[C@@H](C)C(=O)N[C@H](C(=O)N1C[C@@H](F)C[C@H]1Cn1c(-c2[nH]c3cc(F)ccc3c2C[C@@H]2C[C@H](F)CN2C(=O)[C@@H](NC(=O)[C@H](C)NC)C(C)(C)C)nc2cc(F)ccc21)C1CC1

>  <Target or system>
cIAP1-BIR3 Protein (Homo sapiens (Human), UniProt Q13490)

>  <Observed result>
< 10 nM

$$$$

For each of the compounds below, state IC50.
1. CC[C@H](NC(=O)[C@H](C)NC)C(=O)N1C[C@@H](F)C[C@H]1Cn1c(-c2[nH]c3cc(F)ccc3c2C[C@@H]2C[C@H](F)CN2C(=O)[C@@H](NC(=O)[C@H](C)NC)C2CC2)nc2cc(F)ccc21
2. CC[C@H](NC(=O)[C@H](C)NC)C(=O)N1C[C@@H](F)C[C@H]1Cc1c(-c2nc3cc(F)ccc3n2C[C@@H]2C[C@H](F)CN2C(=O)[C@@H](NC(=O)[C@H](C)NC)C2CC2)[nH]c2cc(F)ccc12
3. CC[C@H](NC(=O)[C@H](C)NC)C(=O)N1C[C@@H](F)C[C@H]1Cc1c(-c2nc3cc(F)ccc3n2C[C@@H]2C[C@H](F)CN2C(=O)[C@@H](NC(=O)[C@H](C)NC)C(C)C)[nH]c2cc(F)ccc12
4. CC[C@H](NC(=O)[C@H](C)NC)C(=O)N1CCC[C@H]1Cn1c(-c2[nH]c3cc(F)ccc3c2C[C@@H]2C[C@H](F)CN2C(=O)[C@@H](NC(=O)[C@H](C)NC)C(C)(C)C)nc2cc(F)ccc21

Given back:
1. < 10 nM
2. < 10 nM
3. < 10 nM
4. < 10 nM
